Origin of values: patent US20220370453A1

- MEASUREMENT TARGET: BCDIN3D (Homo sapiens)
- Sequence (Q7Z5W3 whole entry): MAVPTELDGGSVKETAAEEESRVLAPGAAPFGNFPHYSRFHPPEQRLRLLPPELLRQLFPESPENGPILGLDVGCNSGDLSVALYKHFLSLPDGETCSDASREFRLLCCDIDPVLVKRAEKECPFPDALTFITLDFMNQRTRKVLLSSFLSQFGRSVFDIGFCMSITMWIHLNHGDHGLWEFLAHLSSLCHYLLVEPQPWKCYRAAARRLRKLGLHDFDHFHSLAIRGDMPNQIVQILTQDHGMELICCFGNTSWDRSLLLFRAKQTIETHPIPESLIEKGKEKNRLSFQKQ
- PROTOCOL DETAILS: BCDIN3D InCellPulse thermal stability assay in transfected A549 cells
- Assay type: cell-based
- CONDITION DESCRIPTION: transiently transfected A549 cells, heat shock 58° C. 15 min
pIC50: −log10 of the molar value.
Quick rule for you: pIC50 at 6 or higher means met, lower means not met.

Cn1ncc2c(Nc3ccc(C(F)(F)F)cc3)nc(NCC3(N)COC3)nc21    not met

pIC50 >= 6 for Cn1ncc2c(Nc3ccccc3)nc(NCC3(N)CC3)nc21 ?
not met

Try the compound Cn1ncc2c(Nc3ccc(C(F)(F)F)nc3)nc(NCC(N)c3ccccc3)nc21 (centres unmarked)
met

Similarly, Cn1ncc2c(NC3CC(Cl)(Cl)C3)nc(NC[C@H](N)c3ccccc3)nc21 ?
met

Now this one: Cn1ncc2c(NC3CC(C)(F)C3)nc(NC[C@H](N)c3ccccc3)nc21 (some centres unmarked)
met

Now try Cn1ncc2c(NC(C)(C)C3CCOCC3)nc(NC[C@H](N)c3ccccc3)nc21 .
not met

====

Measured log10 IC50, listed per entry.
- MEASUREMENT TARGET: BCDIN3D (Homo sapiens)
- PROTOCOL DETAILS: BCDIN3D IC50 RFMS (RapidFire) assay with mini-helix
- Type: biochemical
- CONDITION DESCRIPTION: mini-helix substrate 0.2 μM, SAM 6 μM, 25 nM enzyme
Recall that a logarithmic scale is used here: each number is log10 of IC50 in nM.

Example entries begin here.
[2H]C([2H])([2H])n1ncc2c(Nc3ccc(C(F)(F)F)cc3)nc(NCC3(N)CC3)nc21    1.70
Cn1ncc2c(NC3CC(F)(F)C3)nc(NC[C@H](N)c3ccccc3)nc21    2.24
C[C@H](Nc1nc(NC[C@H](N)c2ccccc2)nc2c1cnn2C)C(F)(F)F [Compound 4.98]    2.13
Cn1ncc2c(Nc3ccc(OC(F)(F)F)cc3)nc(NCC3(N)CC3)nc21    2.25

Would you mind telling me what log10 IC50 value was observed for Cn1ncc2c(Nc3ccc(C(F)(F)F)cc3)nc(NCC(N)CF)nc21 (centres unmarked) ?
3.48

Then what about the molecule Cc1ccc(CNc2nc(NC3CCCCC3N)nc3c2cnn3C)cc1Cl (centres unmarked) ?
3.06

# iterate: Cn1ncc2c(N[C@H]3C[C@@H](F)C3)nc(NC[C@H](N)c3ccccc3)nc21
2.76

Record: Cn1ncc2c(NCc3ccc(F)cc3F)nc(NCC(N)c3ccccc3)nc21 (centres unmarked)
2.63

====

Collected IC50 values appear next to each entry.
- MEASUREMENT TARGET: UniProt Q7Z5W3
- PROTOCOL DETAILS: BCDIN3D IC50 RFMS (RapidFire) assay with mini-helix
- Type: biochemical
- CONDITION DESCRIPTION: mini-helix 0.2 μM and SAM 6 μM as substrates, 25 nM enzyme, 1 hr at 37° C.
- Description: The following General Methods details the assay conditions for the Biological assays. BCDIN3D IC50 RFMS Assay with Mini-Helix The enzymatic assay was performed in a 384-well polypropylene plate in assay buffer with 25 mM Tris pH 8.0, 10 mM DTT, 1 mM EDTA, 0.03% BSA in a final assay volume of 20 μL. The enzyme with a final concentration of 25 nM was pre-incubated with the respective compound at 1% DMSO final assay concentration over 10 min at room temperature. […]
Number only, in µM; omit the unit.

Record excerpt, results attached:
Cn1ncc2c(NC(C)(C)C)nc(NC[C@H](N)c3ccc(F)c(F)c3)nc21    0.8
Cn1ncc2c(NC(C)(C)C)nc(NC[C@H](N)c3ccc(F)cc3)nc21    0.33
COc1ccc(CNc2nc(NCCN)nc3c2cnn3C)cc1Cl    1.66
Cc1nn(C)c2nc(NCC(C)(C)N)nc(Nc3cccc(C(F)(F)F)c3)c12    4.33
Cn1ncc2c(NCc3ccc4nc[nH]c4c3)nc(NCCN)nc21    7.8

# query: IC50 | item Cn1ncc2c(Nc3ccc(C(F)(F)F)nc3)nc(NC[C@H](N)c3ccccc3)nc21 | system: UniProt Q7Z5W3
0.0334

Continue with Cn1ncc2c(Nc3ccc(C(F)(F)F)nc3)nc(NC[C@@H](N)c3ccccc3)nc21
0.209

What do you get for CNc1nc(NC[C@@](C)(N)c2ccccc2)nc2c1cnn2C (single isomer, unassigned) ?
7.65

Same question for Cc1ccc(CNc2nc(N[C@@H]3CCCC[C@H]3N)nc3c2cnn3C)cc1Cl please.
8.58

For COc1ccc(CNc2nc(NCC(C)(C)N)nc3c2cnn3C)cc1 then?
2.88
